// provenance: patent US20220009951A1

System: Male SD rats
assay.explanation: Comparison of diuretic effects (urine output of saline-loaded rats)
Assay type: in vivo, rat
assay.context: 30 mL/kg normal saline intragastrically, drug 10 mg/kg iv, urine collected for 4 h
endpoint.name: Urine output (mL/kg, 4 h)

molecule	value.measured
Cc1cccc(Nc2ccncc2S(=O)(=O)N(COP(=O)([O-])[O-])C(=O)NC(C)C)c1.[K+].[K+]	116.8 mL/kg
Cc1cccc(Nc2ccncc2S(=O)(=O)N(COP(=O)(O)O)C(=O)NC(C)C)c1 [Compound of formula I, N-hydroxymethyl-torsemide phosphate]	105.4 mL/kg
Cc1cccc(Nc2ccncc2S(=O)(=O)NC(=O)NC(C)C)c1 [Torsemide]	100.3 mL/kg
Cc1cccc(Nc2ccncc2S(=O)(=O)N(COP(=O)(O)O)C(=O)NC(C)C)c1 [Compound of formula Ic]	103.4 mL/kg
Cc1cccc(Nc2ccncc2S(=O)(=O)N(COP(=O)([O-])[O-])C(=O)NC(C)C)c1.[Na+].[Na+]	121.6 mL/kg
Cc1cccc(Nc2ccncc2S(=O)(=O)N(COP(=O)(O)O)C(=O)NC(C)C)c1 [Compound of formula Id]	105.6 mL/kg
